test readout: glass transition temperature (°C)

*CC1CC(*)OC(CCC)O1 (repeat unit) : 54.42
*C(=O)c1ccc2c(c1)C(=O)N(c1cccc(C(=O)c3ccc(Oc4ccc(N5C(=O)c6ccc(*)cc6C5=O)cc4C(F)(F)F)cc3)c1)C2=O (repeat unit) : 242.00

[a] *Oc1ccc(CC(NC(=O)CCc2ccc(OC(=O)CCCCCCCCC(*)=O)cc2)C(=O)OC(C)CC)cc1 (repeat unit)
[b] *c1c(C)cc(C(c2cc(C(F)(F)F)cc(C(F)(F)F)c2)c2cc(C)c(N3C(=O)c4ccc(-c5ccc6c(c5)C(=O)N(*)C6=O)cc4C3=O)c(C)c2)cc1C (repeat unit)
Of the two listed items, which has the higher glass transition temperature? First: a Second: b Answer by stating the label of the chosen item.
b
(b: 317.40 °C, a: 36.00 °C)
